Test system: Staphylococcus aureus
Experiment: Antibacterial activity against methicillin resistant Staphylococcus aureus 4591/A assessed as reduction in microbial growth incubated for 24 hrs by microdilution assay
Assay type: functional
Recorded measurements of MIC, one per entry
State just the number; it will be interpreted in µg/mL.

Would you please look over these solved cases?
CCCCCCCCOP(=O)(CCN(CCN)CCN)OCCCCCCCCOP(=O)(CCN(CCN)CCN)OCCCCCCCC.Cl.Cl.Cl.Cl.Cl.Cl (stereo unspecified) = 3
CCCCCCCCOP(=O)(CCN(CCCN)CCCN)OCCCCCCCCOP(=O)(CCN(CCCN)CCCN)OCCCCCCCC.Cl.Cl.Cl.Cl.Cl.Cl (stereo unspecified) = 5
CCCCOP(=O)(CCN(CCCN)CCCN)OCCCCCCCCCCCCCCOP(=O)(CCN(CCCN)CCCN)OCCCC.Cl.Cl.Cl.Cl.Cl.Cl (stereo unspecified) = 2
Cl.Cl.Cl.Cl.Cl.Cl.NCCCN(CCCN)CCP(=O)(OCCCCCCCCOP(=O)(CCN(CCCN)CCCN)OCCc1ccccc1)OCCc1ccccc1 (stereo unspecified) = 16
Cl.Cl.Cl.Cl.Cl.Cl.N=C(N)NCCCN(CCCNC(=N)N)CCP(=O)(OCCCCCOP(=O)(CCN(CCCNC(=N)N)CCCNC(=N)N)OCC12CC3CC(CC(C3)C1)C2)OCC12CC3CC(CC(C3)C1)C2 (stereo unspecified) = 1
CCCCCCOP(=O)(CCN(CCCN)CCCN)OCCCCCCCCCCOP(=O)(CCN(CCCN)CCCN)OCCCCCC.Cl.Cl.Cl.Cl.Cl.Cl (stereo unspecified) = 1
CCCCCCOP(=O)(CCN(CCCN)CCCN)OCCCCCCCCCCCCCCOP(=O)(CCN(CCCN)CCCN)OCCCCCC.Cl.Cl.Cl.Cl.Cl.Cl (stereo unspecified) = 1
CCCCC/C=C\CCCOP(=O)(CCN(CCCN)CCCN)OCCCCCCOP(=O)(CCN(CCCN)CCCN)OCCC/C=C\CCCCC.Cl.Cl.Cl.Cl.Cl.Cl (stereo unspecified) = 0.5

IN: Consider the molecule shown here: Cl.Cl.Cl.Cl.Cl.Cl.NCCCN(CCCN)CCP(=O)(OCCCOP(=O)(CCN(CCCN)CCCN)OCC12CC3CC(CC(C3)C1)C2)OCC12CC3CC(CC(C3)C1)C2 (stereo unspecified) What is its recorded MIC?
OUT: 4

IN: Need MIC of CCCCC/C=C\CCOP(=O)(CCN(CCCN)CCCN)OCCCCCOP(=O)(CCN(CCCN)CCCN)OCC/C=C\CCCCC.Cl.Cl.Cl.Cl.Cl.Cl (stereo unspecified) , thanks.
OUT: 1

====

In this section, each of the compounds is paired with its reported log10 MIC.
System: Staphylococcus epidermidis
Assay: Antibacterial activity against Staphylococcus epidermidis CCM 7221 assessed as inhibition of bacterial growth incubated for 24 hrs by microdilution assay
Type: functional
Scale: log10; quantity: MIC; unit before log: µg/mL

Reference set (5 entries):
Cl.Cl.Cl.Cl.Cl.Cl.NCCCN(CCCN)CCP(=O)(OCCCCCCOP(=O)(CCN(CCCN)CCCN)OCCC12CC3CC(CC(C3)C1)C2)OCCC12CC3CC(CC(C3)C1)C2 (configuration not stated) = -0.30
CCCCC/C=C\CCOP(=O)(CCN(CCCN)CCCN)OCCCOP(=O)(CCN(CCCN)CCCN)OCC/C=C\CCCCC.Cl.Cl.Cl.Cl.Cl.Cl (configuration not stated) = 0.30
CCCC/C=C\CCOP(=O)(CCN(CCN)CCN)OCCCCCCOP(=O)(CCN(CCN)CCN)OCC/C=C\CCCC.Cl.Cl.Cl.Cl.Cl.Cl (configuration not stated) = -0.30
CCC/C=C\CCOP(=O)(CCN(CCCN)CCCN)OCCCOP(=O)(CCN(CCCN)CCCN)OCC/C=C\CCC.Cl.Cl.Cl.Cl.Cl.Cl (configuration not stated) = 0.90
CCCCCCCCOP(=O)(CCN(CCN)CCN)OCCCCCCCCOP(=O)(CCN(CCN)CCN)OCCCCCCCC.Cl.Cl.Cl.Cl.Cl.Cl (configuration not stated) = -0.70

IN: Endpoint output: log10 MIC of CCCCCOP(=O)(CCN(CCCN)CCCN)OCCCCCCCCCCCCCCOP(=O)(CCN(CCCN)CCCN)OCCCCC.Cl.Cl.Cl.Cl.Cl.Cl (configuration not stated) . Value?
OUT: -0.30

IN: Query (compound): Cl.Cl.Cl.Cl.Cl.Cl.NCCCN(CCCN)CCP(=O)(OCCCCCCCCCCOP(=O)(CCN(CCCN)CCCN)OCCc1ccccc1)OCCc1ccccc1 (configuration not stated) ; field requested: log10 MIC
OUT: 0.00
